These data points were gathered from patent US20250353873A1.

# Test system: human APOE RNA
# TEST_DETAILS: Activity in APOE C57BL/6NTac-Apoeem7250 knock-in mice, single ICV bolus, 4 weeks (Example 10)
# Format: in vivo
# TEST_CONDITIONS: spinal cord; single ICV bolus 300 μg; 4 weeks post treatment; normalized to mouse Ppia
Strand notation (5' to 3'): a small letter for the sugar, then the base; units joined by * are phosphorothioate-linked, units joined directly phosphodiester-linked; [ ] holds rarer units or linkages, { } end groups; capitals alone tell only the bases. [ms] = mesyl phosphoramidate linkage; e = 2'-O-(2-methoxyethyl) (MOE); k = constrained ethyl (cEt); [5mC] = 5-methylcytosine; d = 2'-deoxy (DNA)
One threshold, 50 % control, splits the recorded APOE RNA (% control) Spinal Cord values: lower ones are T, equal or higher ones are F.

Input line: Answer whether the substance 1746807 (k[5mC]*kT*dT[ms]dG[ms]dG[ms]kT*dG[ms]dA[ms]dA[ms]dT*d[5mC]*dT*dT*dT*dA[ms]dT*dT[ms]kA*kA*kA; antisense) [Compound 1746807] has APOE RNA (% control) Spinal Cord strictly less than 50 % control
Output line: F

Input line: Does the reported APOE RNA (% control) Spinal Cord of 1778117 (eA*e[5mC]eTeTeG*eG*dT*dG[ms]dA[ms]dA*dT*d[5mC]*dT*dT*dT*dA[ms]kT*eT*eA*eA; antisense) [Compound 1778117] stay below 50 % control?
Output line: F

Input line: Please check: APOE RNA (% control) Spinal Cord for 1778123: modified oligonucleotide complementary to human APOE RNA (eA*e[5mC]eTeTeG*eG*dT*dG[ms]dA[ms]dA*dT*d[5mC]*dT*dT*dT*dA[ms]kTkT*eA*eA; antisense) [compound 1778123] , strictly under 50 % control or not?
Output line: F

Input line: Please let me know if 1785589 (k[5mC]*kT*kT*dG[ms]dG[ms]dT[ms]dG*dA*dA*dT[ms]d[5mC][ms]dT*dT*dT*dA*dT*kT*kA*dA[ms]kA; antisense) [Compound 1785589] shows APOE RNA (% control) Spinal Cord below 50 % control.
Output line: T

Input line: Answer whether the substance 1778107: 6-10-4 MOE gapmer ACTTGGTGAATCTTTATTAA, linkages sooossszzsssssszsss (eA*e[5mC]eTeTeG*eG*dT*dG[ms]dA[ms]dA*dT*d[5mC]*dT*dT*dT*dA[ms]eT*eT*eA*eA) [compound 1778107] has APOE RNA (% control) Spinal Cord strictly less than 50 % control
Output line: F

Input line: Hello, is APOE RNA (% control) Spinal Cord of the following substance strictly smaller than 50 % control? 1785604: modified oligonucleotide complementary to human APOE RNA (k[5mC]*dT[ms]dT[ms]kG*dG[ms]kT*dG[ms]dA[ms]dA*dT*d[5mC]*dT*dT*dT*dA*dT*kT*kA*dA[ms]kA; antisense) [compound 1785604]
Output line: F

Input line: Does the reported APOE RNA (% control) Spinal Cord of the following substance sit strictly below 50 % control? 1778109: 6-10-4 MOE gapmer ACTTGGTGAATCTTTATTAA, linkages sooossszzsssssszoss (eA*e[5mC]eTeTeG*eG*dT*dG[ms]dA[ms]dA*dT*d[5mC]*dT*dT*dT*dA[ms]eTeT*eA*eA) [compound 1778109]
Output line: F

Input line: Lab note: confirm whether the reported APOE RNA (% control) Spinal Cord for this substance is below 50 % control, equality not counting. substance: 1746801 (k[5mC]*dT[ms]dT[ms]kG*kG*dT[ms]dG[ms]dA[ms]dA[ms]dT*d[5mC]*dT*dT*dT*dA[ms]dT*kT*dA[ms]kA*kA; antisense) [Compound 1746801]
Output line: T
